molecular target: Mouse ACVR2A (mouse, UniProt P27038 20-135, limits assumed); assay: ELISA; also: test concentration or dose not given here
Sequence (P27038 20-135 limits assumed): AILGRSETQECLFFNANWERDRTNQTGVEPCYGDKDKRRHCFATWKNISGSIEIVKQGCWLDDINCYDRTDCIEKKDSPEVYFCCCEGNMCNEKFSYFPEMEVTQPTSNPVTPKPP
Readout Type: optical density (OD)
Field format: number, assumed OD, no unit text.

Recorded optical density, per entry:
Data point: 369_F01 (antibody, V domains shown) VH: EVQLLESGGGLVQPGGSLRLSCAASGFTFSSYGMNWVRQAPGKGLEWVSGINYNGGYKSYADSVKGRFTISRDNSKNTLYLQMNSLRAEDTAVYYCARSANWHDTALDYWGQGTLVTVSS VL: DIQMTQSPSSLSASVGDRVTITCRASQSILTYVNWYQQKPGKAPKLLIYAATSRASGVPSRFSGSGSGTDFTLTISSLQPEDFATYYCQQSYELPLTFGGGTKVEIK ; optical density = 3.42

Record 369_H06 (antibody, V domains shown) VH: EVQLLESGGGLVQPGGSLRLSCAASGFTFSSYGMNWVRQAPGKGLEWVANINYNGGYKSYADSVKGRFTISRDNSKNTLYLQMNSLRAEDTAVYYCARSANWHDTALDYWGQGTLVTVSS VL: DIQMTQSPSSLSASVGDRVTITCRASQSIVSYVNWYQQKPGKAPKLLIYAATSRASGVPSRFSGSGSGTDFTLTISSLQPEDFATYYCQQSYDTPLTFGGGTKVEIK , field optical density: 3.56

***
Entry 369_D02 (antibody, V domains shown) VH: EVQLLESGGGLVQPGGSLRLSCAASGFTFSDYSMNWVRQAPGKGLEWVSNINYNSGYTGYADSVKGRFTISRDNSKNTLYLQMNSLRAEDTAVYYCARSANWHDTALDYWGQGTLVTVSS VL: DIQMTQSPSSLSASVGDRVTITCRASQSILSYLNWYQQKPGKAPKLVIYAVTSRASGVPSRFSGSGSGTDFTLTISSLQPEDFATYYCQQSYDTPLTFGGGTKVEIK ; optical density = 3.44
